Measured pEC50 by item
# TEST SYSTEM: T1, mouse tissue factor pathway inhibitor (TFPI) (mouse, UniProt O54819 29-289, limits assumed)
# T1 construct: Bought protein; also called mouse TFPI; mTFPI
# T1 sequence (looked up): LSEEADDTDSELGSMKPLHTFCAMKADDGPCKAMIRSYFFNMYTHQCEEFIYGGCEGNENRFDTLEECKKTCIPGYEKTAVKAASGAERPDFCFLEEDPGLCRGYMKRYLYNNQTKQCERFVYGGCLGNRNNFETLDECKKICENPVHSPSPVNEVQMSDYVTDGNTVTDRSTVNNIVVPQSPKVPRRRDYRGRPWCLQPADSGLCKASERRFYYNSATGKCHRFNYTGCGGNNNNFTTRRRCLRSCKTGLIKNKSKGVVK
# EXPERIMENT SUMMARY: ELISA, Fab on coated TFPI
pEC50: −log10 of the molar value.
EXPERIMENTAL ENDPOINT: pEC50

binder="TP-2C7 Fab (Fab, V domains shown, Human Fab from HuCal Gold, expressed in E. coli TG1) VH: QVQLQQSGPGLVKPSQTLSLTCAISGDSVSSNSAAWGWIRQSPGRGLEWLGIIYYRSKWYNHYAVSVKSRITINPDTSKNQFSLQLNSVTPEDTAVYYCARSNWSGYFDYWGQGTLVTVSS VL: DIQMTQSPSSLSASVGDRVTITCRASQDIRNNLAWYQQKPGKAPKLLIYAASSLQSGVPSRFSGSGSGTDFTLTISSLQPEDFAVYYCQQRNGFPLTFGQGTKVEIKR" experimental_endpoint=pEC50 value_observed=9.22
binder="TP-3C1 Fab (Fab, V domains shown, Human Fab from HuCal Gold, expressed in E. coli TG1; Shares its VL with TP-2G9 and its VH with TP-3F2) VH: QVQLVESGGGLVQPGGSLRLSCAASGFTFSSYSMHWVRQAPGKGLEWVSGISYSSSFTYYADSVKGRFTISRDNSKNTLYLQMNSLRAEDTAVYYCARALGGGVDYWGQGTLVTVSS VL: DIALTQPASVSGSPGQSITISCTGTSSDLGGFNTVSWYQQHPGKAPKLMIYSVSSRPSGVSNRFSGSKSGNTASLTISGLQAEDEADYYCQSYDLNNLVFGGGTKLTVLG" experimental_endpoint=pEC50 value_observed=6.96
